All values here come from patent US12109207B2.

Tested on: H1975 cells
procedureSummary: Cell cytotoxicity assay (MTS), H1975
Format: cell-based, human
assayConditions: Homo sapiens, NCI-H1975
Experimental: Cells were seeded into the wells of 96-well plates (2000 cells/well). After an overnight culture, the cells were treated with different concentrations of a compound for 72 h. The CellTiter 96 AQueous one-solution cell proliferation assay (MTS) reagent was used to determine cytotoxicity. […] Next, the absorbance at 490 nm of the culture medium in each well was determined using a VersaMax microplate reader (Molecular Devices).
propertyMeasured: IC50

## Input Dear colleague, I am looking for the recorded IC50 of the following compound: "O=C(O)c1ccc2[nH]c(-c3ccccc3)cc(=O)c2c1"
## Output > 10 µM

----------
Tested on: human fibroblast (HFB) cells
procedureSummary: Cell cytotoxicity assay (MTS), human fibroblast
Assay type: cell-based
assayConditions: normal cell line HFB
pIC50: −log10 of the molar value.
propertyMeasured: pIC50

## Input Which pIC50 value belongs to "CCOC(=O)c1ccc2[nH]c(-c3cccc(F)c3)cc(=O)c2c1" ?
## Output < 5.00

## Input Next: "CC(C)OC(=O)c1ccc2[nH]c(-c3cccc(F)c3)cc(=O)c2c1"
## Output < 5.00

## Input Follow-up item: "CCOC(=O)c1ccc2[nH]c(-c3ccccc3)cc(=O)c2c1"
## Output < 5.00

----------
Tested on: SKOV-3
procedureSummary: Cell cytotoxicity assay (MTS), SKOV-3
Type: cell-based
assayConditions: Homo sapiens, SK-OV-3
propertyMeasured: IC50 (µM)
Enter your answer as a number in µM; do not include the unit.

## Input Data request, read-out IC50, for "CCOC(=O)c1ccc2[nH]c(-c3ccccc3)cc(=O)c2c1"
## Output 0.05

----------
System: SAS
procedureSummary: Cell cytotoxicity assay (MTS), SAS
Type: cell-based
assayConditions: Homo sapiens
propertyMeasured: pIC50
Give only the number. pIC50 is defined as minus log10 of concentration in molar units.

## Input Form field: pIC50 recorded for "CCOC(=O)c1ccc2[nH]c(-c3ccccc3)cc(=O)c2c1" with SAS (enter value)
## Output 7.11

----------
System: 23 cancer cell lines
procedureSummary: Cytotoxicity against 23 cancer cell lines
Format: cell-based, human
assayConditions: Homo sapiens; lung, breast, ovarian, head and neck, colon, prostate, leukemia lines; read-out: IC50 values for the 23 cancer cell lines tested
pIC50: −log10 of the molar value.
propertyMeasured: pIC50

## Input Record request: pIC50 value, item "CCOC(=O)c1ccc2[nH]c(-c3ccccc3)cc(=O)c2c1"
## Output 7.08 to 7.80

----------
Tested on: SW620
procedureSummary: Cell cytotoxicity assay (MTS), SW620
Assay type: cell-based
assayConditions: Homo sapiens, SW-620
Description: Cells were seeded into the wells of 96-well plates (2000 cells/well). After an overnight culture, the cells were treated with different concentrations of a compound for 72 h. The CellTiter 96 AQueous one-solution cell proliferation assay (MTS) reagent was used to determine cytotoxicity. […] Next, the absorbance at 490 nm of the culture medium in each well was determined using a VersaMax microplate reader (Molecular Devices).
propertyMeasured: IC50 (nM)
The answer is to be given in nM; state only the numeric part.

## Input Given the compound CCOC(=O)c1ccc2[nH]c(-c3ccccc3)cc(=O)c2c1 [AS1712] , what is its reported IC50?
## Output 35

----------
Tested on: PC9
procedureSummary: Cell cytotoxicity assay (MTS), PC9
Format: cell-based
assayConditions: Homo sapiens, PC-9, PC9, 72 h
propertyMeasured: pIC50
On this scale, pIC50 is minus log10 of a concentration expressed in M (mol/L).

## Input Bench note: what pIC50 did CCOC(=O)c1ccc2[nH]c(-c3ccccc3)cc(=O)c2c1 [AS1712] show?
## Output 7.77

----------
Tested on: KBvin
procedureSummary: Cell cytotoxicity assay (MTS), KBvin
Type: cell-based, human
assayConditions: Homo sapiens; KBvin, P-gp overexpressing, vincristine-selected KB subline
propertyMeasured: pIC50
The value called pIC50 is obtained by taking minus log10 of the concentration in mol/L.

## Input Recall the recorded pIC50 for CCOC(=O)c1ccc2[nH]c(-c3cccc(F)c3)cc(=O)c2c1 [RJ-LC-15-8] with KBvin and state it.
## Output 7.46

## Input Another compound to look at: CC[C@]1(O)C[C@H]2CN(CCc3c([nH]c4ccccc34)[C@@](C(=O)OC)(c3cc4c(cc3OC)N(C=O)[C@H]3[C@@](O)(C(=O)OC)[C@H](OC(C)=O)[C@]5(CC)C=CCN6CC[C@]43[C@@H]65)C2)C1 [Vincristine, vincristine]
## Output 6.09

## Input And C/C(=C\c1csc(C)n1)[C@@H]1C[C@@H]2O[C@]2(C)CCC[C@H](C)[C@H](O)[C@@H](C)C(=O)C(C)(C)[C@@H](O)CC(=O)N1 [Ixabepilone, ixabepilone] ?
## Output 6.71

## Input Next compound up: CC(=O)O[C@H]1C(=O)[C@@]2(C)[C@H]([C@H](OC(=O)c3ccccc3)[C@]3(O)C[C@H](OC(=O)[C@H](O)[C@@H](NC(=O)c4ccccc4)c4ccccc4)C(C)=C1C3(C)C)[C@]1(OC(C)=O)CO[C@@H]1C[C@@H]2O [Paclitaxel, paclitaxel]
## Output 6.15

## Input Here is the next compound: CCOC(=O)c1ccc2[nH]c(-c3ccccc3)cc(=O)c2c1 [AS1712]
## Output 7.43
